Where these numbers come from: the supplement of paper PMC10567573

B1: SETD8 (parent)
chain: FVVEYHGDLIEITDAKKREALYAQ

# Variants of: B1
# assay.remarks: protein stability index of a GFP-peptide fusion (GPS, HEK-293T) (PSI 1-6); higher = more stable;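 further: lentivirally expressed fusions sorted by FACS into six bins by GFP to DsRed ratio, PSI derived from sequencing read proportions per bin multiplied by bin number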
# reported.conditions: c terminus: a fixed tail appended
Label scheme for protein stability index: lower than 2 is False, 2 and above is True.

> print(dat)
     var  answer.label
 1  Y22D          True
 2  A15Q          True
 3  T13E         False
 4   F1N          True
 5  A23S         False
 6   D8A         False
 7  R18H          True
 8   V3W          True
 9   G7K         False
10   G7M         False
11  D14F          True
12   V2Y         False
13   H6C          True
14  I10M         False
15  Y22G         False
16   G7H          True
17  Q24C         False
18  T13M         False
